Provide the reported Inhibition of each item.
# System: Escherichia coli
# assay_procedure: Antibacterial activity against Escherichia coli ATCC 25922 (CO-ADD:GN_001); MIC in CAMBH media using NBS plates, by Resazurin F(560/590)
# Assay type: functional
# condition_set: Concentration 20 uM, ASSAY_TEST Inhibition of Bacterial Growth, detection method Resazurin, Fluorescence (ex560/em590), MEDIA CAMHB, plate type 384well, CORNING #3640, time 18 hr
Report as: number unit

>  <compound>
NC(=O)NC1NC(=O)NC1=O (configuration not stated) [ALLANTOIN]

>  <Inhibition>
9.38%

$$$$
>  <compound>
Nc1ccc(C(=O)Nc2ccc(Nc3ccncc3)cc2)cc1

>  <Inhibition>
-13.54%

$$$$

Provide Inhibition for all items below, preserving their order.
1. CCNc1nc(NC(C)C)nc(-c2ccncc2)n1
2. CCN(CC)c1ccc(/C=C/c2cc(-c3ccccc3)c3ccccc3n2)cc1
3. COc1ccccc1/C=C(\C#N)C(=O)O
4. O=C1C(CO)C(CO)C(CO)C1CO (configuration not stated)
5. CCNC(=O)Oc1cccnc1O
6. Cc1ccc(NC(=O)NNC(=O)CSC2CCc3ccccc32)c(C)c1 (configuration not stated)
7. CSC(=N)NS(=O)(=O)c1ccc(NC(C)=O)cc1

OUTPUT:
["9.95%", "4.61%", "5.31%", "12.18%", "11.39%", "0.84%", "12.78%"]

---

# System: Cryptococcus neoformans
# condition_set: Concentration 20 uM; ASSAY_TEST Inhibition of Fungal Growth; detection method Resazurin; Absorption (OD600-OD570); plate type 384well; NBS; CORNING #3640
# Description: Antifungal activity against Cryptococcus neoformans H99 ATCC 208821 (CO-ADD:FG_002); MIC in YNB media using NBS plates, by Resazurin OD(600-570)
Results with a measured potency or affinity are listed apart.
Record form. Attribute: Inhibition. Fill in for each entry.
Give bare numbers, in %.

Look over these answered cases.
>  <line_notation>
CN(CCC#N)c1ccc(/C=C(\C#N)c2cccc(C(F)(F)F)c2)cc1

>  <Inhibition (%)>
-3.8

$$$$
>  <line_notation>
CCOC(=O)N1CCc2cc(OC)c(OC)c3c2c1cc1cc(OC)c(OC)cc13

>  <Inhibition (%)>
-3.38

$$$$
>  <line_notation>
C#CCSc1nnnn1-c1ccc(Br)c(C)c1

>  <Inhibition (%)>
-16.38

$$$$

Could you report Inhibition for every entry in the following list?
1. O=C(Nc1ccc(F)cc1)OCCOc1ccc(Br)cc1
2. CNc1ccc(/N=N/c2cc[n+]([O-])cc2C)cc1C
3. C1=Cc2ccccc2Nc2ccccc21
4. CSc1nc(O)cc(Cl)n1
5. c1ccc(-n2nnnc2-c2cccc3ccccc23)cc1

OUTPUT:
[3.63, -28.56, -15.72, -0.01, -9.54]

---

# Test system: Escherichia coli
# assay_procedure: Antibacterial activity against Escherichia coli ATCC 25922 (CO-ADD:GN_001); MIC in CAMBH media using NBS plates, by Resazurin F(560/590)
# Type: functional
# condition_set: Concentration 20 uM, ASSAY_TEST Inhibition of Bacterial Growth, detection method Resazurin, Fluorescence (ex560/em590), MEDIA CAMHB, plate type 384well, CORNING #3640, time 18 hr
property_name: Inhibition (%)
Answers are plain numbers, in %.

>  <line_notation>
CC(=O)NCCCOc1ccc([N+](=O)[O-])cc1Cl

>  <assay_target>
Escherichia coli

>  <property_name>
Inhibition

>  <measurement>
11.85

$$$$
>  <line_notation>
NCCN1CCNCC1

>  <assay_target>
Escherichia coli

>  <property_name>
Inhibition

>  <measurement>
9.81

$$$$

INPUT: Could you share which Inhibition value was measured for C=CCSC(CC)(CC)C(N)=O ?
OUTPUT: -8.58
